- SUBJECT_OF_TEST: T1, recombinant canine OX40L ECD-TNCc-HIS protein (canine)
- T1 construct: also called Trimeric OX40L probe (HIS tag); trimeric canine OX40L
- T1 chain: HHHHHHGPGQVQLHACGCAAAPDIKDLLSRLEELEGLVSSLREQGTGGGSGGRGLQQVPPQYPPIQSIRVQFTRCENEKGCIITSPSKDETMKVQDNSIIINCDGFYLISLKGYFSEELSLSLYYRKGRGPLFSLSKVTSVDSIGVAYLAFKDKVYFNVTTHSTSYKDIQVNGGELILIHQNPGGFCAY
- TEST_DETAILS: SPR Koff (kd2)
Values of koff greater than or equal to 0.07 s⁻¹ map to yes; values below map to no.

Below are worked cases with known answers.
q: Form field: koff at least 0.07 s⁻¹? Entry: PMX045 (antibody, V domains shown, also called PMX45) VH: EVQLVESGGDLVKPGGSLRLSCVASGFTFSSYHMTWVRQAPGKGLQWVAYITSGGITTSYADAVKGRFTISRDNAKNTLYLQMSSLRAEDTAMYYCARDLVLLLGGADYWGQGTLVTVSS VL: SYELTQPPSVNVTLRETAHITCGGDSIGRKYVQWIQQNPGQAPVVIIYKDSNRPTGIPERFSGANSGNTATLTISGALAEDEADYYCQVGDSGTKAVFGGGTHLTVL
a: no

q: Form field: koff at least 0.07 s⁻¹? Entry: PMX050 (antibody, V domains shown, also called PMX50) VH: EVQLVESGGDLVKPEGSLRLSCVVSGFTFTTYDMSWVRQAPGKGLQWVAYITNDGRITTYTDAVKGRFTISRDNAKNTLYLQMNSLRTVDTGVYYCARHSSSWSRGRFGLDYWGHGTSVFVSS VL: SYVLTQLPSKNVTLKQPAHITCGGDNIGRKGVHWYQQKLGQAPVLIIYYDSSRPTGIPERFSGANSGNTATLTISGALAEDEADYYCQVWDNSASVFGGGTHLTVL
a: yes

q: Form field: koff at least 0.07 s⁻¹? Entry: PMX035 (antibody, V domains shown, also called PMX35) VH: EVQLVESGGDLVKPGGSLRLSCVASGFTFSNFEMYWVRQAPGKGLEWVARIYKSGSTTYHSERVKGRFTISKDSATNMAFLQMNSLRAEDTAVYYCTSASSTGWRFDYWGQGTLVTVSS VL: SYVLTQLPSVSVTLRQTARITCGGDSIGRKNVCWFQQKLGQAPVLIIYDDNSRPSGIPERFSGANSGNTATLTISGALAEDEADYYCQVWDSSTGIFGGGTHLTVL
a: no

Others:
q: Form field: koff at least 0.07 s⁻¹? Entry: PMX033 (antibody, V domains shown, also called PMX33) VH: EVQLVESGGDLVKPGGSLRLSCVASGFTFSSYHMSWVRQAPGKGLQWVAYITSGGRTTSYADAVKGRFTISRDNAKNTLYLQMKSLRAEDTAVYYCASDLVLVLGGAEYWGQGTLVTVSS VL: SYELTQPPSVNVTLRETAHITCGGDSIGRKYVQWIQQNPGQAPVVIIYKDSNRPTGIPERFSGANSGNTATLTISGALAEDEADYYCQVGDSGSKAVFGGGTHLTVL
a: no

q: Form field: koff at least 0.07 s⁻¹? Entry: PMX052 (antibody, V domains shown, also called PMX52) VH: EVQLVESGGDLVKPAGSLRLSCVASGFTFSSYSMSWVRQAPEKGLQLVAGISGGGSRTYYSDAVKGRFTISRDNAKNTVYLQMNSLRAEDTAIYYCAKDGGSWAGYNFDYWGQGTLVTVSS VL: DIVMTQTPPSLSVSPRETASISCKASQSLLHSDGSTYLDWYLQKPGQSPQLLIYLGSNRFTGVSDRFSGSGSGTEFTLRISRVEANDTGVYYCGQGTQLPYTFGQGTELEIK
a: yes

Just for reference, patent US20250340659A1 is where these values come from.
